The origin of these recorded values is patent US10975056B2.

- systemName: DNMT1 (Homo sapiens, UniProt P26358)
- Sequence (P26358 whole entry, looked up): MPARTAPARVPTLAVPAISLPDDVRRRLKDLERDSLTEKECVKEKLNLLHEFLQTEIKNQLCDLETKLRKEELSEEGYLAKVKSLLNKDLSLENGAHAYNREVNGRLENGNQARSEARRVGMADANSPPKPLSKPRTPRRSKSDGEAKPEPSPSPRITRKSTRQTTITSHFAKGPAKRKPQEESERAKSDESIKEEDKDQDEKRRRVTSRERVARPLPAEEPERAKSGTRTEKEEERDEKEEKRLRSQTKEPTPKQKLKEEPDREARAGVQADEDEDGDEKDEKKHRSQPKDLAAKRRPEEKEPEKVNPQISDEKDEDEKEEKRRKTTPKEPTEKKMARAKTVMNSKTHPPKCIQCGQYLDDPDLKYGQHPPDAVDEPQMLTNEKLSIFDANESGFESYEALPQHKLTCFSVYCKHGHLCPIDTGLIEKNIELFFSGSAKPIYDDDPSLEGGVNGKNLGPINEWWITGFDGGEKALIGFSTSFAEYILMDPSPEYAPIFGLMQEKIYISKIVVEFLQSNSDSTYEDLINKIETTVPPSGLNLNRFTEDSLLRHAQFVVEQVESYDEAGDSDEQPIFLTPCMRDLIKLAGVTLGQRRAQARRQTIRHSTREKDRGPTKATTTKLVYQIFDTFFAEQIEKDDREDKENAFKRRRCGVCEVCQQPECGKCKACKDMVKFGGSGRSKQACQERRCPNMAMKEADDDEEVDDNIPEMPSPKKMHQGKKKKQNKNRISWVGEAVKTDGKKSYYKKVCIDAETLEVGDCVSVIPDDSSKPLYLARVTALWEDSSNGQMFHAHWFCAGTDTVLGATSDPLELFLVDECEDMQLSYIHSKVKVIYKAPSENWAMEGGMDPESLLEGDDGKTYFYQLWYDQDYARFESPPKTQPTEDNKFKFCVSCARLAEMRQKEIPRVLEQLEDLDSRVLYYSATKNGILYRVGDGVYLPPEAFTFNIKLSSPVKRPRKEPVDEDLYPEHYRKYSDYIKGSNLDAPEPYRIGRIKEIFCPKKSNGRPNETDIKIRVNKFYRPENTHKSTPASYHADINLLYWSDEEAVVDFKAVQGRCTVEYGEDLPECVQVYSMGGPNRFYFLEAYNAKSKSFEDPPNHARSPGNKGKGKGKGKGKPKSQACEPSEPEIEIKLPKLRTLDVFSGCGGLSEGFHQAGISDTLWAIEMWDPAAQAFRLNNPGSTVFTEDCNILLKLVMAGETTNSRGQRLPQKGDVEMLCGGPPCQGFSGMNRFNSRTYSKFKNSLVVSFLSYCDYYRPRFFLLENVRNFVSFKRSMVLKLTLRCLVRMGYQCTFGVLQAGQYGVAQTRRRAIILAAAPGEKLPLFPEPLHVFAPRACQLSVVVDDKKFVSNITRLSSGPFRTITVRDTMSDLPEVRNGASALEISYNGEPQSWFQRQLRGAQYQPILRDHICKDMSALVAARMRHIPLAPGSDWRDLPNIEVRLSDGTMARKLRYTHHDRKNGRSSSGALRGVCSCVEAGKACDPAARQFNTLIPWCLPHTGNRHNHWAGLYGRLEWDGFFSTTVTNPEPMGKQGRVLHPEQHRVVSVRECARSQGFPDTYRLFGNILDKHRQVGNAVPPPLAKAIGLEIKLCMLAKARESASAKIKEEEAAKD
- experimentDescription: DNMT1 biochemical activity, breaklight assay and/or SPA assay
- particulars: DNMT1 BioChemical (pIC50 category), binned activity in either the breaklight or the SPA assay
pIC50: −log10 of the molar value. Where a name gives a salt, the structure may show the parent alone.
I'd be grateful if you could share measured pIC50 for these entries.

Query block: Under DNMT1 (Homo sapiens, UniProt P26358), report pIC50 for CCc1c(Cl)c(SC(C(N)=O)c2ccccc2)nc(N2CCNCC2)c1Cl (stereo not shown)
Result block: 6.00 to 6.50

Query block: Under DNMT1 (Homo sapiens, UniProt P26358), report pIC50 for CCc1c(C#N)c(SC(C(N)=O)c2ccccc2)nc(N2CCC23CCNCC3)c1C#N (stereo not shown) [Example 38, trifluoroacetate]
Result block: 6.00 to 6.50

Query block: Under DNMT1 (Homo sapiens, UniProt P26358), report pIC50 for CCc1c(C#N)c(SC(C(N)=O)c2ccccc2)nc(N(C)C2CC3CCC(C2)N3)c1C#N (stereo not shown)
Result block: 6.00 to 6.50

Query block: Under DNMT1 (Homo sapiens, UniProt P26358), report pIC50 for CCc1c(C#N)c(S[C@@H](C(N)=O)c2ccccc2)nc(N2CC[C@@H](N)[C@@H](O)C2)c1C#N [Example 514, Trifluoroacetic acid salt]
Result block: > 6.50

###

- systemName: DNMT1 (Homo sapiens, UniProt P26358)
- experimentDescription: DNMT1 biochemical activity, breaklight assay and/or SPA assay
- particulars: binned activity in either the breaklight or the SPA assay; read-out: DNMT1 BioChemical (pIC50 category) (converted)
I'd be grateful if you could share measured IC50 for these entries.

Query block: Tell us which IC50 value is on record for CCc1c(C#N)c(SC(C(N)=O)c2ccccc2)nc(N2CCC(C(N)=O)C2)c1C#N (stereo not shown)
Result block: 316 to 1000 nM

Query block: Tell us which IC50 value is on record for CCc1c(C#N)c(SC(C(N)=O)c2ccccc2)nc(N2CCC(N3C(=O)COC3=O)CC2)c1C#N (stereo not shown)
Result block: 316 to 1000 nM

Query block: Tell us which IC50 value is on record for CC1CN(c2nc(SC(C(N)=O)c3ccccc3)c(C#N)c(C3CC3)c2C#N)CCN1 (stereo not shown)
Result block: 316 to 1000 nM

Query block: Tell us which IC50 value is on record for CCc1c(C#N)c(SCc2ccc(CNC(C)=O)cc2)nc(SC(C(N)=O)c2ccccc2)c1C#N (stereo not shown)
Result block: 316 to 1000 nM

Query block: Tell us which IC50 value is on record for CCc1c(C#N)c(SC(C(N)=O)c2ccsc2)nc(N2CCNCC2)c1C#N (stereo not shown)
Result block: 316 to 1000 nM

Query block: Tell us which IC50 value is on record for CCc1c(C#N)c(SCc2ccc3c(c2)C(OC)(OC)C(=O)N3)nc(N2CCCN(C)CC2)c1C#N
Result block: 316 to 1000 nM

Query block: Tell us which IC50 value is on record for CCc1c(C#N)c(SCc2ccc(CC(=O)O)cc2)nc(N2CCCN(C)CC2)c1C#N
Result block: 1000 to 31600 nM

Query block: Tell us which IC50 value is on record for CC1CN(c2nc(SC(C(N)=O)c3ccccc3)c(C#N)c(C3CC3)c2C#N)CC(C)O1 (stereo not shown)
Result block: 316 to 1000 nM

Query block: Tell us which IC50 value is on record for CCc1c(C#N)c(SC(C(N)=O)c2ccccc2)nc(N2CCN(CCCN)CC2)c1C#N (stereo not shown)
Result block: 316 to 1000 nM

Query block: Tell us which IC50 value is on record for CCc1c(Cl)c(SC(C(N)=O)c2ccccc2)nc(N2CCCN(CCO)CC2)c1Cl (stereo not shown)
Result block: 316 to 1000 nM

Query block: Tell us which IC50 value is on record for CCc1c(C#N)c(SC(C(N)=O)c2ccccc2)nc(N2CC[C@@H](N)[C@H](F)C2)c1C#N (relative stereo)
Result block: < 316 nM

Query block: Tell us which IC50 value is on record for CCc1c(C#N)c(SC(C(N)=O)c2ccccc2)nc(N2CC[C@@H](OP(=O)(O)O)C2)c1C#N (stereo partly shown)
Result block: 1000 to 31600 nM

Query block: Tell us which IC50 value is on record for CCc1c(C#N)c(SC(C(N)=O)c2ccccc2)nc(N2CCC3(CC2)COC(=O)N3)c1C#N (stereo not shown)
Result block: 316 to 1000 nM

Query block: Tell us which IC50 value is on record for CCc1c(C#N)c(SCc2ccc(C(=O)NCCO)cc2)nc(N(C)C)c1C#N
Result block: 316 to 1000 nM

Query block: Tell us which IC50 value is on record for CCCS(=O)(=O)N1CCN(c2nc(SC(C(N)=O)c3ccccc3)c(C#N)c(CC)c2C#N)CC1 (stereo not shown)
Result block: 316 to 1000 nM

Query block: Tell us which IC50 value is on record for CCc1c(C#N)c(SC(C(N)=O)c2ccccc2)nc(N(C)CC(=O)NC2(CO)COC2)c1C#N (stereo not shown)
Result block: < 316 nM
